For each of the molecules below, state its MIC.
# Tested on: P. aeruginosa 799/61
# runDescription: Antibacterial activity in vitro (agar dilution)
# Type: cell-based
# reportedConditions: Pseudomonas aeruginosa, agar dilution (MuellerHinton agar), inoculum 10^4 CFU/spot, read-out: minimum inhibitory concentration (MIC)
Answers are plain numbers, in µg/mL.

cpdSmiles	unitsLabel	reportedValue
COc1cc(O)c(CSC[C@H](NC(C)=O)c2nc(C)no2)c(C#N)c1C	µg/mL	64

Batch of 2 molecules: report MIC for each.
1. COc1cc(O)c2c(c1C)C(=O)OCCCCC(=S)N[C@H](c1nc(CN)no1)CSC2.Cl
2. COC(=O)[C@@H]1CSCc2c(O)cc(OC)c(C)c2C(=O)OCCCCC(=S)N1

A:
[64, 8]
